Target: T1, human iRhom2 (inactive rhomboid protein 2, isoform 1), endogenously expressed on human cells (human, UniProt Q6PJF5 1-856); also: test concentration or dose not given here
T1 sequence: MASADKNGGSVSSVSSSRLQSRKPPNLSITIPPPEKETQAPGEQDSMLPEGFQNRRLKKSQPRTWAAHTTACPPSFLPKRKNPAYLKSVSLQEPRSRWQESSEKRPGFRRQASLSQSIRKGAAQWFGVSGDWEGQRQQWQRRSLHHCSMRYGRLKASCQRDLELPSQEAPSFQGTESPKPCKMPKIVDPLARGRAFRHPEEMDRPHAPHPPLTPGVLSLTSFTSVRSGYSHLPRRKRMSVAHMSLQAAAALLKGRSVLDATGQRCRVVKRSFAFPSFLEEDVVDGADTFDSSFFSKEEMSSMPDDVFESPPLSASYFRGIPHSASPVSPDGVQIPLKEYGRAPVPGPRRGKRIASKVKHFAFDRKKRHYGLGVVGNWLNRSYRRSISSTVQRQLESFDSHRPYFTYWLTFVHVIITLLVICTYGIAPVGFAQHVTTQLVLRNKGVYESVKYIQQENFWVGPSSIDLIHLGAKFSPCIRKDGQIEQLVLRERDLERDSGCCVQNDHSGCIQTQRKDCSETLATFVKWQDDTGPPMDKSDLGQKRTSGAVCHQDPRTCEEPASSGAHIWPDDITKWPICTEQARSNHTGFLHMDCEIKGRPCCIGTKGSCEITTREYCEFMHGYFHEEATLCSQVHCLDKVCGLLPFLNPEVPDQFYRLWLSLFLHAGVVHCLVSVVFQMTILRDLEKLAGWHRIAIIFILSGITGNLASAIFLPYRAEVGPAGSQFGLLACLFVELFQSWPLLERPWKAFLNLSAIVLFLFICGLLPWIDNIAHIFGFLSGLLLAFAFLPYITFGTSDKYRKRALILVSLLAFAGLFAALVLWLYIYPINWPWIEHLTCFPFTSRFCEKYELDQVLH
Assay: cell-based or functional assay
# inhibition of LPS-induced release of TNFα from THP-1 cells, recombinant antibody values compiled below
Report the figure in % inhibition without appending any unit label.

>  <binder>
antibody 5 (antibody, V domains shown, Mouse IgG, kappa light chain; also called clone #5; purified antibody 5) VH: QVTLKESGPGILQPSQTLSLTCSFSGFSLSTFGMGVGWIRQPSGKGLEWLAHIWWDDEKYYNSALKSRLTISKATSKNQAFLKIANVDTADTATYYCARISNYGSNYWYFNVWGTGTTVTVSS VL: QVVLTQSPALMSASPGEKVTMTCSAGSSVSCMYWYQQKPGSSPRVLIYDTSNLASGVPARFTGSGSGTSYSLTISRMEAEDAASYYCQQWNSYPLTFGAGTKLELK

>  <reading>
70.5

$$$$

Input line: Entry antibody 43 (antibody, V domains shown, Mouse IgG, kappa light chain; also called clone #43) VH: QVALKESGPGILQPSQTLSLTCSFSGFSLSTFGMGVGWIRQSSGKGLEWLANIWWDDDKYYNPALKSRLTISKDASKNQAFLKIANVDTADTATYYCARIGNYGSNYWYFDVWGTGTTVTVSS VL: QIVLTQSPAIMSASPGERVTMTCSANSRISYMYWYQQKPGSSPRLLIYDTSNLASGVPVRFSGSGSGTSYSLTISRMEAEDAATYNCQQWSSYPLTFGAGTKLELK : reported inhibition of LPS-induced release of TNFα from THP-1 cells, recombinant antibody = ?
Output line: 78.5

Input line: Requested field: inhibition of LPS-induced release of TNFα from THP-1 cells, recombinant antibody. Item: antibody 42 (antibody, V domains shown, Mouse IgG, kappa light chain; also called clone #42; m42) VH: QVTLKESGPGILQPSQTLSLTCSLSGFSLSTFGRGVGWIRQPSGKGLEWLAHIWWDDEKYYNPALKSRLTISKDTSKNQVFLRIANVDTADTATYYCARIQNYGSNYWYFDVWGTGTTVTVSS VL: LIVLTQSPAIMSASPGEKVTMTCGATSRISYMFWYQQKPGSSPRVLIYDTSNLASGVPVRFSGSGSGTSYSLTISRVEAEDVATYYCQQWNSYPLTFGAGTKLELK
Output line: 75.9

Input line: Consider the binder shown here: antibody 54 (antibody, V domains shown, Mouse IgG, kappa light chain; also called clone #54) VH: QVTLKESGPGILQPSQTLSLTCSFSGFSLSTFGLGVGWIRQPSGKGLECLAHIWWDDDKYSNPALKSRLTISKDTSKNQVFLKIANVDSADTATYFCARILNYGSNYWYFDVWGTGTTVTVSS VL: QIVLTQSPALMSASPGEKVTMTCSASSSISYMYWYQQKPGSSPRLLIYDTSNLASGVPVRFSGSGSGTSFSLTVSRMEAEDAATYYCQQWNSYPLTFGAGTKLELK What is its recorded inhibition of LPS-induced release of TNFα from THP-1 cells, recombinant antibody?
Output line: 67.9

Input line: For antibody 46 (antibody, V domains shown, Mouse IgG, kappa light chain; also called clone #46) VH: QVTLKESGPGILQPSQTLSLTCSFSGFSLSTFGMGVGWIRQPSGKGLEWLAHIWWDDDNYYNQALKSRLTISKDNTKNQVFLNIANVDTADTATYYCARIRSYDYDVRYAMDYWGQGTSVTVSS VL: DIKMTQSPSSMYASLRERVTITCKASQDINSYLSWFQQKPGKSPKTLIYRANRLVDGVPSRFSGSGSGQDYSLTISSLEYEDLGIYYCQQYYEFPLTFGAGTRLELK , what is its reported inhibition of LPS-induced release of TNFα from THP-1 cells, recombinant antibody?
Output line: 36.1

Input line: Please look up its inhibition of LPS-induced release of TNFα from THP-1 cells, recombinant antibody: antibody 57 (antibody, V domains shown, Mouse IgG, kappa light chain; also called clone #57) VH: QVTLKESGPGILQPSQTLSLTCSFSGFSLSTFGMGVGWIRQPSGKGLEWLAHIWWDDDKYYNPALKSRLTISKDTSKNQIFLKIANVDTADSATFYCARIENYGSNYWYFDVWGTGTTVTVSS VL: QIVLTQSPAIMSASPGEKVTMTCSASSSVSYMYWYQQKPGSSPRVLIYDTSNLASGVPVRFSGSGSGTSYSLTVSRMEAEDAATYYCQQWNSYPLTFGAGTKLELK
Output line: 59.7

Input line: Query (binder): antibody 34 (antibody, V domains shown, Mouse IgG, kappa light chain; also called clone #34; m34) VH: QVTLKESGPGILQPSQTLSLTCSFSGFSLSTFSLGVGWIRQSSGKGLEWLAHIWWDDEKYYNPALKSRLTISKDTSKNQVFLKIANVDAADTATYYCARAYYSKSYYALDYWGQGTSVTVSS VL: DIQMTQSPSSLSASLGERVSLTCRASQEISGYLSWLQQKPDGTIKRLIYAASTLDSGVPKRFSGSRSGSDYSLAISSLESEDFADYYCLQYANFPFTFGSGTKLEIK ; field requested: inhibition of LPS-induced release of TNFα from THP-1 cells, recombinant antibody
Output line: 73.8

Input line: Which inhibition of LPS-induced release of TNFα from THP-1 cells, recombinant antibody reading was recorded for the binder antibody 49 (antibody, V domains shown, Mouse IgG, kappa light chain; also called clone #49) VH: QVTLKESGPGILQPSQTLSLTCSFSGFSLSTFGMGVGWIRQPSGKGLEWLAHIWWDDDKYYNPALQSRLTVSKDTAKNQVFLKIANVDTADTAIYYCARVGNYGSNYWYFAVWGTGTTVTVSS VL: QIVLTQSPAIMSASPGEKVTMTCSASSSVSYMYWYQQKPGSSPRLLIYDTSNLASGVPVRFSGSGSGTSYSLTISRMEAEDAATYYCQQWNSYPLTFGAGTKLELK ?
Output line: 59.9
